Test system: Escherichia coli TOP10;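 also: peptides expressed intracellularly from a pBAD plasmid library in pooled LB shake-flask culture, induced with 0.3% L-arabinose, DNA abundance read by NGS, three biological replicates, DESeq2 with apeglm shrinkage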
METHOD: shrunken log2 fold change of peptide-encoding DNA abundance (4.5 h post-induction vs induction); higher = less antimicrobial activity (less host growth inhibition)
ASSAY_CONDITIONS: time post-induction: 4.5 h; library: site-saturation at positions 5, 18, 19, 20
Classes based on shrunken log2 fold change: lower band = under -0.09, central band = from -0.09 up to 0.1, upper band = 0.1 and over

Exam item: Any idea which band RRIRYRPPRLPRPRPRPAMGPRP is in?
Marked response: central band

Exam item: Please classify: RRIRHRPPRLPRPRPRPSWDPRP
Marked response: lower band

Exam item: Note: place this sequence into its band. Item: RRIRKRPPRLPRPRPRPHCFPRP
Marked response: central band

Exam item: Which category does the recorded shrunken log2 fold change put RRIRCRPPRLPRPRPRPEVWPRP in?
Marked response: upper band

Exam item: Given RRIRDRPPRLPRPRPRPPDHPRP , name the class its shrunken log2 fold change places it in.
Marked response: upper band

Exam item: Hi there! Could you help me figure out the category for RRIRARPPRLPRPRPRPKSQPRP please?
Marked response: upper band

Exam item: Input RRIRRRPPRLPRPRPRPNCIPRP ; output its category
Marked response: upper band

Exam item: Class (by measured shrunken log2 fold change) for RRIRTRPPRLPRPRPRPNCMPRP
Marked response: lower band

Exam item: Into which category would you place RRIRLRPPRLPRPRPRPCQKPRP ?
Marked response: lower band

Exam item: State the class of the sequence shown: RRIRQRPPRLPRPRPRPACYPRP
Marked response: lower band

Exam item: // bin(item) where item = RRIRCRPPRLPRPRPRPEMDPRP
Marked response: central band

Exam item: Class (by measured shrunken log2 fold change) for RRIRFRPPRLPRPRPRPFNSPRP
Marked response: central band

Exam item: Category of RRIRLRPPRLPRPRPRPSHTPRP :
Marked response: lower band

Exam item: Just checking, what class would you give RRIRQRPPRLPRPRPRPTYAPRP here?
Marked response: central band

Exam item: Could you place RRIRMRPPRLPRPRPRPIKDPRP in its proper category? Many thanks.
Marked response: lower band

Exam item: Which category does the recorded shrunken log2 fold change put RRIRHRPPRLPRPRPRPVGYPRP in?
Marked response: central band

Exam item: State the class of the sequence shown: RRIRMRPPRLPRPRPRPGVFPRP
Marked response: upper band

Exam item: Entry RRIRTRPPRLPRPRPRPCRCPRP belongs to which category?
Marked response: central band

Exam item: Each sequence maps to one class by shrunken log2 fold change. Which class for RRIRLRPPRLPRPRPRPMWLPRP ?
Marked response: central band

Exam item: Tag the class for RRIRSRPPRLPRPRPRPRIWPRP
Marked response: upper band
